Test system: Escherichia coli TOP10
Assay: shrunken log2 fold change of peptide-encoding DNA abundance (4.5 h post-induction vs induction); higher = less antimicrobial activity (less host growth inhibition)
Settings: time post-induction: 4.5 h; library: site-saturation at positions 5, 18, 19, 20
Catalogue of shrunken log2 fold change values
MEASUREMENT KIND: shrunken log2 fold change

RRIRMRPPRLPRPRPRPVAVPRP :: 0.55
RRIRRRPPRLPRPRPRPRPPPRP :: 0.931
RRIRHRPPRLPRPRPRPLFRPRP :: 0.0546
RRIRYRPPRLPRPRPRPYCAPRP :: -0.899
RRIRMRPPRLPRPRPRPFLSPRP :: -0.0215
RRIRMRPPRLPRPRPRPHGCPRP :: 0.669
RRIRFRPPRLPRPRPRPLRIPRP :: 0.00235
RRIRQRPPRLPRPRPRPGHHPRP :: 0.245
RRIRNRPPRLPRPRPRPCSPPRP :: -0.354
RRIRSRPPRLPRPRPRPGHHPRP :: -0.0988
RRIRHRPPRLPRPRPRPEQPPRP :: -0.0288
RRIRERPPRLPRPRPRPYFGPRP :: -0.673
RRIRYRPPRLPRPRPRPNANPRP :: -2
RRIRERPPRLPRPRPRPGNEPRP :: -0.0966
RRIRWRPPRLPRPRPRPSEPPRP :: -0.266

---

Catalogue of shrunken log2 fold change values
System: Escherichia coli TOP10
Test: shrunken log2 fold change of peptide-encoding DNA abundance (4.5 h post-induction vs induction); higher = less antimicrobial activity (less host growth inhibition)
Details: time post-induction: 4.5 h; library: site-saturation at positions 5, 18, 19, 20
MEASUREMENT KIND: shrunken log2 fold change

RRIRVRPPRLPRPRPRPHPNPRP :: -0.00326
RRIRPRPPRLPRPRPRPGDKPRP :: -0.307
RRIRARPPRLPRPRPRPHTGPRP :: -0.365
RRIRWRPPRLPRPRPRPQYSPRP :: -0.653
RRIRDRPPRLPRPRPRPSFCPRP :: -0.0945
RRIRQRPPRLPRPRPRPWIMPRP :: -0.141
RRIRLRPPRLPRPRPRPRYAPRP :: 0.00198
RRIRYRPPRLPRPRPRPPHDPRP :: -0.383
RRIRMRPPRLPRPRPRPSECPRP :: 0.0809
RRIRARPPRLPRPRPRPFPNPRP :: -0.221
RRIRGRPPRLPRPRPRPVDDPRP :: 0.882
RRIRWRPPRLPRPRPRPPELPRP :: 0.38
RRIRSRPPRLPRPRPRPYFRPRP :: -0.853
RRIRIRPPRLPRPRPRPCEKPRP :: -0.626
RRIRIRPPRLPRPRPRPWTSPRP :: -0.171
RRIRVRPPRLPRPRPRPDFYPRP :: -0.25
RRIRHRPPRLPRPRPRPPVDPRP :: 1.89
RRIRNRPPRLPRPRPRPLVFPRP :: -0.147
RRIRWRPPRLPRPRPRPGWKPRP :: 0.0668
RRIRLRPPRLPRPRPRPFRSPRP :: -0.0185
RRIRSRPPRLPRPRPRPPIQPRP :: 0.0395
RRIRHRPPRLPRPRPRPDMLPRP :: -0.481
RRIRYRPPRLPRPRPRPDWSPRP :: -0.522
RRIRIRPPRLPRPRPRPKMYPRP :: -0.25
RRIRKRPPRLPRPRPRPMYPPRP :: 0.00349
RRIRPRPPRLPRPRPRPLIDPRP :: -0.0112
RRIRMRPPRLPRPRPRPKYTPRP :: 0.169
RRIRDRPPRLPRPRPRPMSYPRP :: -0.0376
RRIRIRPPRLPRPRPRPCCGPRP :: -0.252
RRIRVRPPRLPRPRPRPMTYPRP :: -0.494
RRIRCRPPRLPRPRPRPYFIPRP :: -1.18
RRIRWRPPRLPRPRPRPCQWPRP :: 0.0226

---

System: Escherichia coli TOP10
Experiment: shrunken log2 fold change of peptide-encoding DNA abundance (4.5 h post-induction vs induction); higher = less antimicrobial activity (less host growth inhibition)
Details: time post-induction: 4.5 h; library: site-saturation at positions 5, 18, 19, 20
Catalogue of shrunken log2 fold change values
MEASUREMENT KIND: shrunken log2 fold change

RRIRLRPPRLPRPRPRPWEAPRP :: -0.229
RRIRPRPPRLPRPRPRPPYTPRP :: -0.232
RRIRKRPPRLPRPRPRPSPGPRP :: 0.26
RRIRIRPPRLPRPRPRPNQSPRP :: -0.812
RRIRARPPRLPRPRPRPSSQPRP :: 0.144
RRIRVRPPRLPRPRPRPVNKPRP :: -0.186
RRIRHRPPRLPRPRPRPTWAPRP :: 0.303
RRIRDRPPRLPRPRPRPFYYPRP :: -0.899

---

Catalogue of shrunken log2 fold change values
System: Escherichia coli TOP10
Test: shrunken log2 fold change of peptide-encoding DNA abundance (4.5 h post-induction vs induction); higher = less antimicrobial activity (less host growth inhibition)
Settings: time post-induction: 4.5 h; library: site-saturation at positions 5, 18, 19, 20
MEASUREMENT KIND: shrunken log2 fold change

RRIRYRPPRLPRPRPRPDFKPRP :: -0.261
RRIRLRPPRLPRPRPRPILLPRP :: -0.235
RRIRKRPPRLPRPRPRPDFYPRP :: -0.0302
RRIRGRPPRLPRPRPRPYQVPRP :: 0.174
RRIRTRPPRLPRPRPRPIAPPRP :: -0.0608
RRIRMRPPRLPRPRPRPTHSPRP :: 0.483
RRIRARPPRLPRPRPRPECCPRP :: 0.996
RRIRLRPPRLPRPRPRPYCLPRP :: -0.303

---

Catalogue of shrunken log2 fold change values
Test system: Escherichia coli TOP10
Experiment: shrunken log2 fold change of peptide-encoding DNA abundance (4.5 h post-induction vs induction); higher = less antimicrobial activity (less host growth inhibition)
Settings: time post-induction: 4.5 h; library: site-saturation at positions 5, 18, 19, 20
MEASUREMENT KIND: shrunken log2 fold change

RRIRSRPPRLPRPRPRPWGSPRP :: -0.0403
RRIRSRPPRLPRPRPRPHWPPRP :: 0.341
RRIRHRPPRLPRPRPRPLYYPRP :: -0.611
RRIRLRPPRLPRPRPRPYVLPRP :: -0.0278
RRIRWRPPRLPRPRPRPFVFPRP :: -0.0764
RRIRDRPPRLPRPRPRPARIPRP :: 0.136
RRIRARPPRLPRPRPRPCVIPRP :: 0.158
RRIRNRPPRLPRPRPRPEGNPRP :: -0.0214
RRIRMRPPRLPRPRPRPHVGPRP :: 0.105
RRIRRRPPRLPRPRPRPERVPRP :: 0.125
RRIRHRPPRLPRPRPRPHICPRP :: -0.259
RRIRMRPPRLPRPRPRPGHYPRP :: -0.196
RRIRYRPPRLPRPRPRPNQDPRP :: -0.406
RRIRFRPPRLPRPRPRPYPPPRP :: -0.665
RRIRRRPPRLPRPRPRPFCRPRP :: 0.551
RRIRTRPPRLPRPRPRPDFFPRP :: 0.175
RRIRIRPPRLPRPRPRPMLGPRP :: -0.146
RRIRFRPPRLPRPRPRPCWKPRP :: -0.0141
RRIRARPPRLPRPRPRPEFQPRP :: 0.666
RRIRFRPPRLPRPRPRPALNPRP :: 0.0855
RRIRLRPPRLPRPRPRPWPRPRP :: 0.113
RRIRSRPPRLPRPRPRPKLFPRP :: 0.172
RRIRIRPPRLPRPRPRPIWTPRP :: -0.0318
RRIRKRPPRLPRPRPRPKKFPRP :: 0.0892
RRIRFRPPRLPRPRPRPGCLPRP :: -0.0626
RRIRHRPPRLPRPRPRPTFQPRP :: -0.067
RRIRARPPRLPRPRPRPVPCPRP :: 0.341
RRIRNRPPRLPRPRPRPLSGPRP :: 0.0992
RRIRIRPPRLPRPRPRPDNEPRP :: -0.117
RRIRVRPPRLPRPRPRPIQYPRP :: 0.0111
RRIRMRPPRLPRPRPRPLPLPRP :: 0.718
RRIRDRPPRLPRPRPRPEDRPRP :: 0.0616

---

Tested on: Escherichia coli TOP10;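 further: peptides expressed intracellularly from a pBAD plasmid library in pooled LB shake-flask culture, induced with 0.3% L-arabinose, DNA abundance read by NGS, three biological replicates, DESeq2 with apeglm shrinkage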
Assay: shrunken log2 fold change of peptide-encoding DNA abundance (4.5 h post-induction vs induction); higher = less antimicrobial activity (less host growth inhibition)
Details: time post-induction: 4.5 h; library: site-saturation at positions 5, 18, 19, 20
rule met means recorded shrunken log2 fold change is 0.2 or above; rule not met means it is below 0.2.

RRIRYRPPRLPRPRPRPFDRPRP :: rule not met
RRIRMRPPRLPRPRPRPFVNPRP :: rule met
RRIRFRPPRLPRPRPRPLTLPRP :: rule not met
RRIRARPPRLPRPRPRPVAFPRP :: rule met
RRIRRRPPRLPRPRPRPPPDPRP :: rule met
RRIRVRPPRLPRPRPRPECDPRP :: rule met
RRIRKRPPRLPRPRPRPTPHPRP :: rule met
RRIRERPPRLPRPRPRPQDVPRP :: rule not met
RRIRIRPPRLPRPRPRPVSNPRP :: rule not met
RRIRPRPPRLPRPRPRPTNYPRP :: rule not met
RRIRVRPPRLPRPRPRPVPQPRP :: rule met
RRIRPRPPRLPRPRPRPHFSPRP :: rule not met
RRIRFRPPRLPRPRPRPICGPRP :: rule not met
RRIRARPPRLPRPRPRPDLGPRP :: rule met
RRIRPRPPRLPRPRPRPKTYPRP :: rule not met
